Entries and their Rel EC50 values follow.
# target-or-system: T1, Recombinant DR3-Fc (R&D Systems, cat. #943-D3) (UniProt Q93038 25-199, limits assumed)
# T1 construct: dimeric MW~92 kDa; also called DR3 receptor; Fc-DR3; not shown: Fc part of the bought fusion
# T1 sequence (looked up): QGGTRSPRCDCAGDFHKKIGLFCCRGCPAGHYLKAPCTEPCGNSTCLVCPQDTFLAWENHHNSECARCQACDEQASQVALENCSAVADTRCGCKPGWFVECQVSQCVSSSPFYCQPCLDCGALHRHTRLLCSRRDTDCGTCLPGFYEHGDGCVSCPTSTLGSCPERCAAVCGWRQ
# protocol-text: ELISA, DR3-Fc immobilized

binder	reported-measurement
TL1W118 (His-TEV-TL1A S206A) (ligand, also called TL1W118 (S206A)) HHHHHHENLYFQGLKGQEFAPSHQQVYAPLRADGDKPRAHLTVVRQTPTQHFKNQFPALHWEHELGLAFTKNRMNYTNKFLLIPESGDYFIYSQVTFRGMTSECSEIRQAGRPNKPDSITVVITKVTDSYPEPTQLLMGTKSVCEVGANWFQPIYLGAMFSLQEGDKLMVNVSDISLVDYTKEDKTFFGAFLL	1.6 ratio (head: nM)

INPUT: Give its Rel EC50 value. Item: TL1W120 (His-TEV-TL1A S206K) (ligand, also called TL1W120 (S206K)) HHHHHHENLYFQGLKGQEFAPSHQQVYAPLRADGDKPRAHLTVVRQTPTQHFKNQFPALHWEHELGLAFTKNRMNYTNKFLLIPESGDYFIYSQVTFRGMTSECSEIRQAGRPNKPDSITVVITKVTDSYPEPTQLLMGTKSVCEVGKNWFQPIYLGAMFSLQEGDKLMVNVSDISLVDYTKEDKTFFGAFLL
OUTPUT: 4.4 ratio (head: nM)

INPUT: Give its Rel EC50 value. Item: TL1W38 (His-TEV-TL1A L123K) (ligand, also called TL1W38 (L123K)) HHHHHHENLYFQGLKGQEFAPSHQQVYAPLRADGDKPRAHLTVVRQTPTQHFKNQFPALHWEHEKGLAFTKNRMNYTNKFLLIPESGDYFIYSQVTFRGMTSECSEIRQAGRPNKPDSITVVITKVTDSYPEPTQLLMGTKSVCEVGSNWFQPIYLGAMFSLQEGDKLMVNVSDISLVDYTKEDKTFFGAFLL
OUTPUT: 1.1 ratio (head: nM)
